- TESTED_ON: T1, human C5a (human, UniProt P01031 678-751, biotinylated in the U937/C5aR ligand blocking assay (site not stated))
- T1 construct: also called human antigen; huC5a
- T1 sequence: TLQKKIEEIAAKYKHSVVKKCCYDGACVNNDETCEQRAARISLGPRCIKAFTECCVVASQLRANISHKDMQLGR
- PROTOCOL_DETAILS: ligand blocking, flow cytometry: antibody titrated against 20 nM biotinylated human C5a binding to U937/C5aR cells, Experiment #2
REPORTED_ENDPOINT: IC50 (nM)
Dear colleague, please return just the value in nM, with no unit written.

Field: example entries. Status: answers known.
- BINDER: "E54H (humanized anti-C5a IgG4 antibody) (antibody, V domains shown, Carries F29H and E54H in VH and Y96H in VL (Kabat) relative to 16D10) VH: QVQLVQSGAEVKKPGSSVKVSCKASGYTHTDHIIHWMRQAPGQGLEWMGYIYPRHGWTNYNENFKGRVTITADKSTSTAYMELSSLRSEDTAVYYCARERNLEYFDYWGQGTTVTVSS VL: DIVLTQSPASLAVSPGQRATITCKASQSVDYEGFNYMNWYQQKPGQPPKLLIYAASNLDSGVPARFSGSGSGTDFTLTINPVEAEDTANYYCQQSNEDPHTFGGGTKVEIKR"
  IC50 / nM: 6.53
- BINDER: "N97H (humanized anti-C5a IgG4 antibody) (antibody, V domains shown, Carries F29H and N97H in VH and Y96H in VL (Kabat)) VH: QVQLVQSGAEVKKPGSSVKVSCKASGYTHTDHIIHWMRQAPGQGLEWMGYIYPREGWTNYNENFKGRVTITADKSTSTAYMELSSLRSEDTAVYYCARERHLEYFDYWGQGTTVTVSS VL: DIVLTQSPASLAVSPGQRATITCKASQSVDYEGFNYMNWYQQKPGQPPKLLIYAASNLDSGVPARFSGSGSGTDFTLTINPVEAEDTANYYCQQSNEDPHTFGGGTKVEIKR"
  IC50 / nM: 5.96
- BINDER: "16D10 (humanized anti-C5a IgG4 antibody) (antibody, V domains shown, also called WT (16D10); WT) VH: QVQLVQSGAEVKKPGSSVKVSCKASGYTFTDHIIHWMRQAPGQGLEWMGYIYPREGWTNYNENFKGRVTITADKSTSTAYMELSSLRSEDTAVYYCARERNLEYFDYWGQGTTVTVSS VL: DIVLTQSPASLAVSPGQRATITCKASQSVDYEGFNYMNWYQQKPGQPPKLLIYAASNLDSGVPARFSGSGSGTDFTLTINPVEAEDTANYYCQQSNEDPYTFGGGTKVEIKR"
  IC50 / nM: 5.9

## Task Answer with the recorded IC50 of N92H (humanized anti-C5a IgG4 antibody) (antibody, V domains shown, Carries F29H in VH and N92H and Y96H in VL (Kabat); also called N92H antibody) VH: QVQLVQSGAEVKKPGSSVKVSCKASGYTHTDHIIHWMRQAPGQGLEWMGYIYPREGWTNYNENFKGRVTITADKSTSTAYMELSSLRSEDTAVYYCARERNLEYFDYWGQGTTVTVSS VL: DIVLTQSPASLAVSPGQRATITCKASQSVDYEGFNYMNWYQQKPGQPPKLLIYAASNLDSGVPARFSGSGSGTDFTLTINPVEAEDTANYYCQQSHEDPHTFGGGTKVEIKR only.
## Result 6.23
